- SYSTEM: p110α/p85α (Homo sapiens, UniProt P42336)
- ASSAY INFO: Transcreener KINASE Assay, kinase inhibition of p110α/p85α
- Assay type: biochemical
- CONDITION CONTEXT: 1 uM test compound
MEASURED ENDPOINT: PI3Kα IH % @ 1 uM (%)

As a guide, the following entries are already answered.
{"columns": ["MOLECULE", "PI3Kα IH % @ 1 uM (%)"],
 "data": [
  ["Nc1ncnc(N2CC[C@H]2c2nn3ccc(Cl)c3c(=O)n2-c2ccccc2)c1Cl", "−20.5"],
  ["COc1cccc(-n2c([C@@H]3CCN3c3ncnc4[nH]cc(C#N)c34)nn3ccc(Cl)c3c2=O)c1", "−2.5"],
  ["N#Cc1c(N)ncnc1N1CCC[C@H]1c1nn2ccc(Cl)c2c(=O)n1Cc1ccccn1", 13.0]
]}

[I] N#Cc1c[nH]c2ncnc(N3C[C@@H](F)C[C@H]3c3nn4ccc(Cl)c4c(=O)n3-c3cccc(F)c3)c12
[II] CCC(Nc1ncnc2[nH]cnc12)c1cn2ccc(Cl)c2c(=O)n1-c1cccc(F)c1 (centres unmarked)
[III] O=c1c2c(Cl)ccn2nc([C@@H]2CCCN2c2ncnc3[nH]cnc23)n1-c1cccc(F)c1
[IV] COc1cccc(-n2c([C@@H]3CCCN3c3ncnc4[nH]cnc34)nn3ccc(Cl)c3c2=O)c1
Q) hey, can you rank those molecules up there by PI3Kα IH % @ 1 uM? biggest number first please A complete answer lists every label in the requested sequence.
A) I, II, IV, III
(I: 65.2%, II: 27.4%, IV: 6.4%, III: −3.3%)

----------
- SYSTEM: p110β/p85α (Homo sapiens, UniProt P42338)
- Sequence (P42338 whole entry): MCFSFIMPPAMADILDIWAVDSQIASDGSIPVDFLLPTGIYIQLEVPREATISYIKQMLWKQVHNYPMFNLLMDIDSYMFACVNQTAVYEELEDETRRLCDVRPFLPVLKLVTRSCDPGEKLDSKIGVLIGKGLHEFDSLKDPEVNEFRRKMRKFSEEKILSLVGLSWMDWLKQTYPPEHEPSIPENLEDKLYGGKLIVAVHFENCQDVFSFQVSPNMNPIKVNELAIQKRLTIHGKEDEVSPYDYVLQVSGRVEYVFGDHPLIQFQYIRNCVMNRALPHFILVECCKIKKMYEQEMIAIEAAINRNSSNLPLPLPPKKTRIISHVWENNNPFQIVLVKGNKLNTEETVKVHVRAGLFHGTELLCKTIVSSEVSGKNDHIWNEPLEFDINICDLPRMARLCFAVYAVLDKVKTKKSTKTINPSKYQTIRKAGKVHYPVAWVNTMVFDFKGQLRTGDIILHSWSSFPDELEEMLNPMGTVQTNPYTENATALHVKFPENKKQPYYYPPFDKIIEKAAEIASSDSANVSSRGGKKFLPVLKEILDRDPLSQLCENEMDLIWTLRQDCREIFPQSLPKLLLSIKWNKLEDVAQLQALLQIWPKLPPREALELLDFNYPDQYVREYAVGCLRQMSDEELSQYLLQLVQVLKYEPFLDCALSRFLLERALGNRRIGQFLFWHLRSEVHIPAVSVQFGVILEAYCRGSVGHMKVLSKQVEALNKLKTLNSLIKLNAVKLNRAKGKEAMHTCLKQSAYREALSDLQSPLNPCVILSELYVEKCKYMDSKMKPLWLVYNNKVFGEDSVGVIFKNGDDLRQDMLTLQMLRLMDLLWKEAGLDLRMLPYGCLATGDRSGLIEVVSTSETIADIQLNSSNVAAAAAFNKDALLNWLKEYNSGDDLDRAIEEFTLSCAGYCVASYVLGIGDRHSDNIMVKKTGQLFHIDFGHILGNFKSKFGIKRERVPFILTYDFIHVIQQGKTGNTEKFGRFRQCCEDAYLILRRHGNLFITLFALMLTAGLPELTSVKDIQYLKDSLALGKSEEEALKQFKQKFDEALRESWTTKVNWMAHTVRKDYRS
- Sequence (P27986 2-724 partner): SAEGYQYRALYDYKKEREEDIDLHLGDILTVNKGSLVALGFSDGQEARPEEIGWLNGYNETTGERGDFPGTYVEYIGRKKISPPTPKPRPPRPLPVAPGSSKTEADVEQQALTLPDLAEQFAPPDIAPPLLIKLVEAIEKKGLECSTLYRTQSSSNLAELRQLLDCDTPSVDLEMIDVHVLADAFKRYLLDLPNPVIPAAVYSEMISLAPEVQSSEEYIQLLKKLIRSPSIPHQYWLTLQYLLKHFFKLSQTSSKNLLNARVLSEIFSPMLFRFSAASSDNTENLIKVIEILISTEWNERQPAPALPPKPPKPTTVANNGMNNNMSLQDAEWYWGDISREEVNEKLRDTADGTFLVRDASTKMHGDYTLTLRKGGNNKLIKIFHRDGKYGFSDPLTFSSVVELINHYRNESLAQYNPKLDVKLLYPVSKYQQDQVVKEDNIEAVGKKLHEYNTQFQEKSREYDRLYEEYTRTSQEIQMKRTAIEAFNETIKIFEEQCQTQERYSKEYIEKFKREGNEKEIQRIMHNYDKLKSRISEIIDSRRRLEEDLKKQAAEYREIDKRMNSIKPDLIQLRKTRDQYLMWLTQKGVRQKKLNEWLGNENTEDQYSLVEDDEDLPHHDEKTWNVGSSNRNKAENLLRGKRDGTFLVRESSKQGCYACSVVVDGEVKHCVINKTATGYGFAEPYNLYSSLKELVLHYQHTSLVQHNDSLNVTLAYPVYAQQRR
- ASSAY INFO: Transcreener KINASE Assay, kinase inhibition of p110β/p85α
- Format: biochemical
- CONDITION CONTEXT: read-out: PI3Kβ IC50
pIC50: −log10 of the molar value.
MEASURED ENDPOINT: pIC50

{"columns": ["SMILES RECORD", "MEASURED ENDPOINT", "REPORTED MEASUREMENT"],
 "data": [
  ["O=c1c2c(Cl)ccn2nc([C@@H]2CSCN2c2ncnc3[nH]cnc23)n1-c1ccccc1", "pIC50", 6.32],
  ["CC(=O)c1c[nH]c2ncnc(N3CCC[C@H]3c3nn4ccc(Cl)c4c(=O)n3-c3ccc(F)cc3)c12", "pIC50", 7.05]
]}

[A] CC(=O)c1cnc(N)nc1N1C[C@H](C)[C@H]1c1nn2ccc(Cl)c2c(=O)n1-c1ccc(F)cc1
[B] N#Cc1c[nH]c2ncnc(N3C[C@@H](F)C[C@H]3c3nn4ccc(Cl)c4c(=O)n3-c3ccccc3)c12
Q) Looking only at measured pIC50, which entry is lower, A or B ? Indicate your choice by writing its label.
A) A

----------
- SYSTEM: p110γ (Homo sapiens)
- Sequence (P48736 whole entry): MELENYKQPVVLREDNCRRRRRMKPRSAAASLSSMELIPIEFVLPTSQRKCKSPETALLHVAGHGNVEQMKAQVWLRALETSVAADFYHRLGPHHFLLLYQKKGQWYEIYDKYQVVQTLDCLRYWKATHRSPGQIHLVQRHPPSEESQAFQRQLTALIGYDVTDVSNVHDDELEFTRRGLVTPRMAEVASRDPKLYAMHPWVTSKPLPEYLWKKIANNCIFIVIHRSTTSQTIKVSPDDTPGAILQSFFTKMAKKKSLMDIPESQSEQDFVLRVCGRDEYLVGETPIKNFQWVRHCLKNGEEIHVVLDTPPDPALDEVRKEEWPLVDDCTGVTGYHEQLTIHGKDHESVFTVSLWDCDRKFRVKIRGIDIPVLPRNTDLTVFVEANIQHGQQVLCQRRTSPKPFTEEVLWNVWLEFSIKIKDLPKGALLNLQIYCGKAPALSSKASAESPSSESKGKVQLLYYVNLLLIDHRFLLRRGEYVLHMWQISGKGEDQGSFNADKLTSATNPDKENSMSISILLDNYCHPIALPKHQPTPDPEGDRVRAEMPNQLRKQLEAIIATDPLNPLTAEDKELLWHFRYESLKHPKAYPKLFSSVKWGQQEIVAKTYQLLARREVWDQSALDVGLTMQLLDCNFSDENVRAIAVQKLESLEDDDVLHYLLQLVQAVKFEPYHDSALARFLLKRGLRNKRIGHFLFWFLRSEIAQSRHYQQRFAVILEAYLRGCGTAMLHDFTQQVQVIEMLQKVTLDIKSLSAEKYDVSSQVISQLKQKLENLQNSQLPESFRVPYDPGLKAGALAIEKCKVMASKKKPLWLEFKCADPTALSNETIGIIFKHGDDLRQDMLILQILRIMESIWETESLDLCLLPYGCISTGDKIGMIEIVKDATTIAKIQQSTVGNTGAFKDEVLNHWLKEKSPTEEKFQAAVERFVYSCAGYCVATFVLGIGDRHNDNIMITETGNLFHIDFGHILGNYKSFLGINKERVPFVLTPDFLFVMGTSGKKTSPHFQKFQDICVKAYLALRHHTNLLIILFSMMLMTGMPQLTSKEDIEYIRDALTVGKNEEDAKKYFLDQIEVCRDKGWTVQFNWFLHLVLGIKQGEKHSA
- ASSAY INFO: Transcreener KINASE Assay, kinase inhibition of p110γ
- Type: biochemical
- CONDITION CONTEXT: 1 uM test compound
MEASURED ENDPOINT: PI3Kγ IH % @ 1 uM (%)

The following compounds have reported results that may help.
{"columns": ["COMPOUND", "REPORTED MEASUREMENT"],
 "data": [
  ["CC(=O)c1c[nH]c2ncnc(N3C[C@@H](F)C[C@H]3c3nn4ccc(Cl)c4c(=O)n3-c3cccc(F)c3)c12", 91.8],
  ["O=c1c2c(Cl)ccn2nc([C@@H]2CCCN2c2ncnc3[nH]cc(C4=NCCO4)c23)n1-c1ccccc1", 94.6],
  ["CC(Nc1ncnc2[nH]cc(C#N)c12)c1cn2ccc(Cl)c2c(=O)n1-c1cccc(F)c1 (stereo not drawn) [Compound 277]", 97.0]
]}

[a] Nc1ncnc(N2CCC[C@H]2c2nn3ccc(Cl)c3c(=O)n2-c2ccccc2)n1
[b] CC(=O)c1cnc(N)nc1N1CC[C@@H]1c1nn2ccc(Cl)c2c(=O)n1-c1ccccc1
Q) Param pair: a , b . Output: the one whose PI3Kγ IH % @ 1 uM is numerically greater. Reply briefly: the label of your chosen item.
A) a
(a: 95.0%, b: 36.6%)

----------
- SYSTEM: p110β/p85α (Homo sapiens, UniProt P42338)
- ASSAY INFO: Transcreener KINASE Assay, kinase inhibition of p110β/p85α
- Type: biochemical
- CONDITION CONTEXT: 1 uM test compound
MEASURED ENDPOINT: PI3Kβ IH % @ 1 uM (%)

Use the examples below as a reference point.
{"columns": ["SMILES RECORD", "MEASUREMENT UNITS", "REPORTED MEASUREMENT"],
 "data": [
  ["N#Cc1c[nH]c2ncnc(N3C[C@@H](F)C[C@H]3c3nn4ccc(Cl)c4c(=O)n3Cc3ccccn3)c12", "%", 71.1],
  ["C[S@+]([O-])c1c[nH]c2ncnc(N3C[C@@H](F)C[C@H]3c3nn4ccc(Cl)c4c(=O)n3-c3cccc(F)c3)c12", "%", 67.2],
  ["O=c1c2c(Cl)ccn2nc([C@@H]2CCCCN2c2ncnc3[nH]cnc23)n1-c1ccccc1", "%", 23.3],
  ["CC(=O)c1c[nH]c2ncnc(N3CC[C@H]3c3nn4ccc(Cl)c4c(=O)n3-c3ccccn3)c12", "%", 20.0],
  ["CC(=O)c1cnc(N)nc1N1C[C@H](C)[C@H]1c1nn2ccc(Cl)c2c(=O)n1-c1ccccn1", "%", 67.3]
]}

[A] CC(=O)c1cnc(N)nc1N1C[C@H](C)[C@H]1c1nn2ccc(Cl)c2c(=O)n1-c1ccccc1
[B] NC(=O)c1c[nH]c2ncnc(N3CC[C@H]3c3nn4ccc(Cl)c4c(=O)n3-c3ccccc3)c12
Q) For the pair A and B , which entry has the numerically smaller recorded PI3Kβ IH % @ 1 uM? Output the label that corresponds to your choice.
A) B

----------
- SYSTEM: p110δ/p85α (Homo sapiens)
- Sequence (O00329 whole entry): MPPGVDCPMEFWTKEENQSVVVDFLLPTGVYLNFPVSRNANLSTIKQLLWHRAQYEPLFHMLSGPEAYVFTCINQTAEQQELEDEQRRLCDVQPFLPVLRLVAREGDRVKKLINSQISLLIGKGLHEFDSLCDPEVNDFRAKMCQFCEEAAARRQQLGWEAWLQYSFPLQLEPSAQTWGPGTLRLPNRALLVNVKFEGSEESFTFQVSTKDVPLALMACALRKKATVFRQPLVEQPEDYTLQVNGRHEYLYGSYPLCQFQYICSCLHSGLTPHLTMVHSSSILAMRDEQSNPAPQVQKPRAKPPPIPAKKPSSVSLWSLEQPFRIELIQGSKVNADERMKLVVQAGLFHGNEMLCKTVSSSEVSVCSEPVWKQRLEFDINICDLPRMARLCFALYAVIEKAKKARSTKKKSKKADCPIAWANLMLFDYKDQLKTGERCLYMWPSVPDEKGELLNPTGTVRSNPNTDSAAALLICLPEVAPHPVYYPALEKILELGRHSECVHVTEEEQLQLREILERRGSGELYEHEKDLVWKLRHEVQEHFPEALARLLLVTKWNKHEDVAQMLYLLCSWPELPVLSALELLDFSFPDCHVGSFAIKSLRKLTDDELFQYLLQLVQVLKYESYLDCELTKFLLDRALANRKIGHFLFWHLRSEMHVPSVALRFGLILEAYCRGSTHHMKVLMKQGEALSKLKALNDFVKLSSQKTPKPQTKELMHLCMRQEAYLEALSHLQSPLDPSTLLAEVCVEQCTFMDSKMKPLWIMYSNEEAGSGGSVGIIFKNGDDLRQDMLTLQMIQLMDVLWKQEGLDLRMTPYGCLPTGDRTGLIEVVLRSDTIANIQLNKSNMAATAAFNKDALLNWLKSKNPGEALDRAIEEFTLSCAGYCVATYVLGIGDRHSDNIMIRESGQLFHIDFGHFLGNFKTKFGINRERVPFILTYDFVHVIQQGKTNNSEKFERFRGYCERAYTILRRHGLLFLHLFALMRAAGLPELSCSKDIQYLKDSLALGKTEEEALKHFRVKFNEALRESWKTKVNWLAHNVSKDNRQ
- Sequence (P27986 whole entry partner): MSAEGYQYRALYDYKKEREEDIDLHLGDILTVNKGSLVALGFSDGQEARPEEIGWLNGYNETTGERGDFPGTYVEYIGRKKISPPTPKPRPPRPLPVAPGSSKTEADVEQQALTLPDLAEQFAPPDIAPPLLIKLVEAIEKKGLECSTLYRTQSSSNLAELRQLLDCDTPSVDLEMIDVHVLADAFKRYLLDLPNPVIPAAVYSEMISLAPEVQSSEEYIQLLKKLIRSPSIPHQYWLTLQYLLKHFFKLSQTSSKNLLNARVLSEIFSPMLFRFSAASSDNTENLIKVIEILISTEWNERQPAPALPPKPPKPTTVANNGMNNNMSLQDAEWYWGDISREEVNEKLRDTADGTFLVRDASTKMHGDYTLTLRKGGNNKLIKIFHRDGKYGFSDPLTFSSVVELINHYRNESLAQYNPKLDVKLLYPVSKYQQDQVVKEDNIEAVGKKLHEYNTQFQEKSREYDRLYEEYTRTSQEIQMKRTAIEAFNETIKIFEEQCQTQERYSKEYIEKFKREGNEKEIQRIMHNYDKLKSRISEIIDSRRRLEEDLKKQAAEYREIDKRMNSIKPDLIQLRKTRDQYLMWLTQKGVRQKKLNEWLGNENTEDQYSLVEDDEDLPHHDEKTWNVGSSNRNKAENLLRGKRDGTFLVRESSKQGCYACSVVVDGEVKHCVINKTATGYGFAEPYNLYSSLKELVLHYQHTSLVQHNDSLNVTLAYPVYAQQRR
- ASSAY INFO: Transcreener KINASE Assay, kinase inhibition of p110δ/p85α
- CONDITION CONTEXT: read-out: PI3Kδ IC50
- Method: PI3K kinases including p110α/p85α, p110δ/p85α and p110γ are purchased from Invitrogen, and p110β/p85α is from Millipore. Primary screening data and IC50 values are measured using Transcreener™ KINASE Assay (Bellbrook, Catalog #3003-10K). […] It is a universal, homogenous, high throughput screening (HTS) technology using a far-red, competitive fluorescence polarization immunoassay based on the detection of ADP to monitor the activity of enzymes that catalyze group transfer reactions. […]
pIC50: −log10 of the molar value.
MEASURED ENDPOINT: pIC50

Here is how some compounds turned out for pIC50.
{"columns": ["COMPOUND", "pIC50"],
 "data": [
  ["CC(=O)c1cnc(N)nc1N1CC[C@H]1c1nn2ccc(Cl)c2c(=O)n1-c1ccc(F)cc1 [Compound 302]", 7.11],
  ["COCCO[C@H]1C[C@@H](c2nn3ccc(Cl)c3c(=O)n2-c2ccccc2)N(c2ncnc3[nH]cc(C#N)c23)C1 [Compound 264]", 9.00],
  ["N#Cc1cnc(N)nc1N1C[C@@H](F)C[C@H]1c1nn2ccc(F)c2c(=O)n1-c1ccccc1 [Compound 227]", 8.30],
  ["C[S+]([O-])c1c[nH]c2ncnc(N3C[C@@H](F)C[C@H]3c3nn4ccc(Cl)c4c(=O)n3-c3ccccc3)c12 (stereo partly drawn) [Compound 267]", 8.52],
  ["CC1(C)CN(c2nc(N)ncc2C#N)C1c1nn2ccc(Cl)c2c(=O)n1-c1ccccc1 (stereo not drawn) [Compound 471]", 8.52],
  ["O=c1c2c(Cl)ccn2nc([C@@H]2CCCN2c2ncnc3[nH]cnc23)n1-c1ccc(F)cc1 [Compound 41]", 8.22],
  ["Cc1nc(N)nc(N2CC[C@H]2c2nn3ccc(Cl)c3c(=O)n2-c2ccccc2)c1C#N [Compound 283]", 8.70],
  ["CC(=O)c1c[nH]c2ncnc(NC(C)c3cn4ccc(Cl)c4c(=O)n3-c3ccccc3)c12 (stereo not drawn) [Compound 272]", 8.15]
]}

[a] N#Cc1ncc(-c2c[nH]c3ncnc(N4CC[C@H]4c4nn5ccc(Cl)c5c(=O)n4-c4ccccc4)c23)cn1 [Compound 103]
[b] N#Cc1cnc(N)nc1N1CC[C@H]1c1nn2ccc(Cl)c2c(=O)n1-c1ccccc1 [Compound 212]
Q) API: POST /compare with a and b ; response names the item with higher pIC50. Field: selected label. Fill in the label of the entry you choose.
A) a

[I] C[C@H]1CN(c2nc(N)nc(N)c2C#N)[C@@H]1c1nn2ccc(Cl)c2c(=O)n1-c1ccc(F)cc1 [Compound 480]
[II] O=c1c2c(Cl)ccn2nc([C@@H]2C[C@H](F)CN2c2ncnc3[nH]cnc23)n1-c1cccc(F)c1 [Compound 214]
[III] Nc1nc(N2CC[C@H]2c2nn3ccc(Br)c3c(=O)n2-c2ccccc2)n2nccc2n1 [Compound 135]
Q) Hey, quick one: sort these by pIC50, largest value first please. // respond by listing labels in the order requested
A) II, I, III

meta.source: patent US20150307520A1
